The reported numbers originate from patent US20170002075A1.

# Measured target: T1, hRAGE (1-331) / human sRAGE 1-331, V#400 (human, UniProt Q15109 23-331)
# T1 construct: also called sRAGE [RAGE (1-331)]; RAGE (antigen of the Biacore runs)
# T1 sequence (Q15109 23-331): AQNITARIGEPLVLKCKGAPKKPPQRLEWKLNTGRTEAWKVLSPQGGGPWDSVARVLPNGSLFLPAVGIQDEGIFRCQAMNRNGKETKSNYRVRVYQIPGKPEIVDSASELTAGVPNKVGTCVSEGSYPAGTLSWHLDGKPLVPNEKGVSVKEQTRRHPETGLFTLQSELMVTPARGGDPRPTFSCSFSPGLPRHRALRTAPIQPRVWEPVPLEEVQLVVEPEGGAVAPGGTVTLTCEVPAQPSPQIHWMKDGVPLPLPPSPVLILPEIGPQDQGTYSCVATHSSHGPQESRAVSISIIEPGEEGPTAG
# Experimental details: competition ELISA on coated hRAGE (1-331); competitor biotinylated m11E6 at 0.3 µg/ml
Metric: pIC50
# reply with the number alone; pIC50 is -log10 of concentration in mol/L

// worked examples, pIC50 included
>>> value_reported("humanized anti-RAGE antibody h11E6.11 (antibody, V domains shown, Full-length humanized antibody transiently produced in 293-6E cells) VH: EVQLVQSGAEVKKPGASVKVSCKASGYTFTNFGMNWVRQAPGQGLEWMGYINTNTGESIYSEEFKGRVTMTRDTSTSTAYMELSSLRSEDTAVYYCARSRMVTAYGMDYWGQGTSVTVSS VL: EIVMTQSPATLSLSPGERATLSCKASQNVGTAVAWYQQKPGQAPRLLIYSASNRYTGIPARFSGSGSGTDFTLTISSLQSEDFAVYYCQQYSSYPLTFGQGTKLEIKR")
7.70
>>> value_reported("humanized anti-RAGE antibody h11E6.16 (antibody, V domains shown, Full-length humanized antibody transiently produced in 293-6E cells) VH: EIQLVQSGAEVKKPGASVKVSCKASGYTFTNFGMNWVRQAPGQGLEWMGYINTNTGESIYSEEFKGRFTFTLDTSTSTAYMELSSLRSEDTAVYFCARSRMVTAYGMDYWGQGTSVTVSS VL: EIVMTQSPATLSLSPGERATLSCKASQNVGTAVAWYQQKPGQSPRLLIFSASNRYTGVPARFSGSGSGTDFTLTISSLQSEDFAVYFCQQYSSYPLTFGQGTKLEIKR")
8.04

// next entry
Give its pIC50 value. Item: humanized anti-RAGE antibody h11E6.5 (antibody, V domains shown, Full-length humanized antibody transiently produced in 293-6E cells) VH: EIQLVQSGSELKKPGASVKVSCKASGYTFTNFGMNWVRQAPGQGLEWMGYINTNTGESIYSEEFKGRFVFSLDTSVSTAYLQICSLKAEDTAVYFCARSRMVTAYGMDYWGQGTTVTVSS VL: DIQMTQSPSSLSASVGDRVTITCKASQNVGTAVAWYQQKPGKAPKLLIYSASNRYTGVPSRFSGSGSGTDFTLTISSLQPEDFATYYCQQYSSYPLTFGQGTKLEIKR
7.79
